# assayed_target: T1, PAI-1 (Homo sapiens, UniProt P05121)
# T1 construct: made in house; host or cells: E. coli (vector pET3a)
# T1 sequence (P05121 24-402): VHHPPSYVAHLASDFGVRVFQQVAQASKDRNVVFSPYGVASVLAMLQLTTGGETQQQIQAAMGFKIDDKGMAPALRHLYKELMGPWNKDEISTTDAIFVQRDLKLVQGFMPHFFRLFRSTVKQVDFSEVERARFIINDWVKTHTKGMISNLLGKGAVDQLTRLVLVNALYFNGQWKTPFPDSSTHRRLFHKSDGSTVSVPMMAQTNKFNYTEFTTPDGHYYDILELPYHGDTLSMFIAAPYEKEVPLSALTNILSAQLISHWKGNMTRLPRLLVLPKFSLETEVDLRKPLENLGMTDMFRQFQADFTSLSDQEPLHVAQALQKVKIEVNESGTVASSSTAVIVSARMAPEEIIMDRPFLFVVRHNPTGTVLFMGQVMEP
# assay_protocol: Kinetics of peptide annealing: residual PAI inhibitory activity assayed with β-trypsin and S-2222
# Type: biochemical
# condition_context: FIG. 2; read-out: IC50 for the inactivation of PAI-1
# Experimental: PAI-1 (6.4 μM) was incubated with increasing concentrations of each peptide at 23° C. and the (T1/2) of PAI-1 inactivation was determined by measuring the PAI-1 activity remaining over time. […] During annealing of 0.9 μM PAI with a peptide, the residual inhibitory activity of PAI was measured after varying incubation times by assaying an aliquot of the sample with β-trypsin. […] The absorbance at 405 nm was measured continuously for at least 12.5 min in a Shimadzu UV-265 UV-visible spectrophotometer. […]
Ends that are not written are not given here.
Listed here are substances together with their documented IC50.

{"columns": ["substance", "assayed_target", "IC50 [µM]"],
 "data": [
  ["Ac-TEAAAATG [SEQ ID NO: 4, Thr-Glu-Ala-Ala-Ala-Ala-Thr-Gly]", "T1, PAI-1 (Homo sapiens, UniProt P05121)", 1600],
  ["Ac-TVASSSTA [SEQ ID NO: 2, Thr-Val-Ala-Ser-Ser-Ser-Thr-Ala]", "T1, PAI-1 (Homo sapiens, UniProt P05121)", 230],
  ["Ac-TEASSSTA [SEQ ID NO: 3, Thr-Glu-Ala-Ser-Ser-Ser-Thr-Ala]", "T1, PAI-1 (Homo sapiens, UniProt P05121)", 1600]
]}

----------
# assayed_target: PAI-1 (Homo sapiens, UniProt P05121)
# Construct: made in house; host or cells: E. coli (vector pET3a)
# assay_protocol: Kinetics of peptide annealing: residual PAI inhibitory activity assayed with β-trypsin and S-2222
# Type: biochemical
# condition_context: summary of Example 2; peptide concentration not given
Ends that are not written are not given here.

{"columns": ["substance", "assayed_target", "half-life of PAI-1 decreased to [min]"],
 "data": [
  ["Ac-TEAAAATG [SEQ ID NO: 4, Thr-Glu-Ala-Ala-Ala-Ala-Thr-Gly]", "PAI-1 (Homo sapiens, UniProt P05121)", 78],
  ["Ac-TEASSSTA [SEQ ID NO: 3, Thr-Glu-Ala-Ser-Ser-Ser-Thr-Ala]", "PAI-1 (Homo sapiens, UniProt P05121)", 72],
  ["Ac-TEAAAATGAAATGR [SEQ ID NO: 5, TEAAAATGAAATGR]", "PAI-1 (Homo sapiens, UniProt P05121)", 12],
  ["Ac-TVASSSTA [SEQ ID NO: 2, Thr-Val-Ala-Ser-Ser-Ser-Thr-Ala]", "PAI-1 (Homo sapiens, UniProt P05121)", 43]
]}
